property-label: melting point

Some molecules with known melting point results, for comparison:
COc1cc(Cl)ccc1N=c1scc(-c2ccc(Cl)c(S(=O)(=O)N(C)C)c2)n1C
148 to 150 °C
Cc1ccc(N2N=C(C(N)=O)NC2c2c(F)cccc2F)cc1COCC(F)(F)C(F)(F)F (stereo not drawn)
182 to 185 °C
O=C1CCC(=O)N1c1ccncc1
232 to 235 °C
O=C(O)c1cn(-c2ccc(F)cc2)c2c(F)c(N3Cc4cccc(Cl)c4C3)c(F)cc2c1=O
283 to 291 °C
COC(=O)c1ccc(C2c3[nH]c4ccccc4c3CCN2C(=O)C=Cc2cccc(C(=O)OC)c2)cc1 (stereo not drawn)
182 °C

Query string: Tell us which melting point value is on record for CNC(=S)N(O)C(C)c1cc(C(C)(C)C)c(O)c(C(C)(C)C)c1 (stereo not drawn)
Result string: 175 to 176 °C

Query string: Tell us which melting point value is on record for CNC1=NC2(O)c3ccc(OCC(F)(F)C(F)(F)C(F)(F)F)cc3CC2S1 (stereo not drawn)
Result string: 178 to 180 °C

Query string: Tell us which melting point value is on record for Cc1c(-c2ccccc2)oc2c(C(=O)CBr)cccc2c1=O
Result string: 134 to 135 °C
